- System: LG0567-F671-PDC multi-cell spheroid viability
- procedure text: Anticancer human tumor LG0567-F671-PDC patient-derived lung adenocarcinoma cell line growth inhibition [IpAb]
- test settings: second compound 0.316 µM; first compound 0.01 µM; hits give low values
Answer each item with its documented viability, T/C.
Write the value in % as a bare number.

Query :: Any idea what viability, T/C was measured for COc1c(OCCCN2CCOCC2)ccc2c3n(c(=NC(=O)c4cnc(N)nc4)nc12)CCN3 + CC(C)NCC(C(=O)N1CCN(c2ncnc3c2C(C)CC3O)CC1)c1ccc(Cl)cc1 ?
Result :: 75.8

Query :: So what's the measured viability, T/C for this one? Cn1ncnc1[C@H]1c2n[nH]c(=O)c3cc(F)cc(c23)N[C@@H]1c1ccc(F)cc1 + CC(C)NCC(C(=O)N1CCN(c2ncnc3c2C(C)CC3O)CC1)c1ccc(Cl)cc1
Result :: 44.9

Query :: // viability, T/C lookup, key: COc1c(OCCCN2CCOCC2)ccc2c3n(c(=NC(=O)c4cnc(N)nc4)nc12)CCN3 + CCN1CCN(Cc2ccc(Nc3ncc(F)c(-c4cc(F)c5nc(C)n(C(C)C)c5c4)n3)nc2)CC1
Result :: 74.2

* * *

- System: LG0567-F671-PDC multi-cell spheroid viability
- procedure text: Anticancer human tumor LG0567-F671-PDC cell line growth inhibition [IpAb];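 note: viability read after 7 days of drug exposure; 100% = DMSO vehicle control luminescence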
- test settings: second compound 1 µM; first compound 0.001 µM; hits give low values
value type: viability, T/C

Query :: Reported viability, T/C for Cn1ncnc1[C@H]1c2n[nH]c(=O)c3cc(F)cc(c23)N[C@@H]1c1ccc(F)cc1 + CC(C)NCC(C(=O)N1CCN(c2ncnc3c2C(C)CC3O)CC1)c1ccc(Cl)cc1 : what is it?
Result :: 74.5%

Query :: Report viability, T/C for CC(C)n1nc(-c2ccc3oc(N)nc3c2)c2c(N)ncnc21 + CC(C)NCC(C(=O)N1CCN(c2ncnc3c2C(C)CC3O)CC1)c1ccc(Cl)cc1 please.
Result :: 81.3%

Query :: Recorded viability, T/C of Cn1ncnc1[C@H]1c2n[nH]c(=O)c3cc(F)cc(c23)N[C@@H]1c1ccc(F)cc1 + CCN1CCN(Cc2ccc(Nc3ncc(F)c(-c4cc(F)c5nc(C)n(C(C)C)c5c4)n3)nc2)CC1 , please.
Result :: 67.4%

Query :: Quick one: viability, T/C for CC(C)n1nc(-c2ccc3oc(N)nc3c2)c2c(N)ncnc21 + CCN1CCN(Cc2ccc(Nc3ncc(F)c(-c4cc(F)c5nc(C)n(C(C)C)c5c4)n3)nc2)CC1 ?
Result :: 61.7%

* * *

- Test system: LG0567-F671-PDC multi-cell spheroid viability
- procedure text: Anticancer human tumor LG0567-F671-PDC cell line growth inhibition [IpAb]; active means viability on the fitted dose curve at most 10% of control; inactive means the rest;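 note: viability read after 7 days of drug exposure; 100% = DMSO vehicle control luminescence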
- test settings: second compound 1 µM; first compound 0.3 µM
I would appreciate it if you answered using one of these outcomes: active, inactive

Query :: Just curious, what result did Cn1cnc2c(F)c(Nc3ccc(Br)cc3Cl)c(C(=O)NOCCO)cc21 + CC(C)NCC(C(=O)N1CCN(c2ncnc3c2C(C)CC3O)CC1)c1ccc(Cl)cc1 get here?
Result :: inactive

Query :: In this assay, the call recorded for CC(=O)c1c(C)c2cnc(Nc3ccc(N4CCNCC4)cn3)nc2n(C2CCCC2)c1=O + CC(C)NCC(C(=O)N1CCN(c2ncnc3c2C(C)CC3O)CC1)c1ccc(Cl)cc1 was what?
Result :: inactive

Query :: # fetch the recorded call for Cn1cnc2c(F)c(Nc3ccc(Br)cc3Cl)c(C(=O)NOCCO)cc21 + CCN1CCN(Cc2ccc(Nc3ncc(F)c(-c4cc(F)c5nc(C)n(C(C)C)c5c4)n3)nc2)CC1 here
Result :: inactive

Query :: // param item: CC(=O)c1c(C)c2cnc(Nc3ccc(N4CCNCC4)cn3)nc2n(C2CCCC2)c1=O + CCN1CCN(Cc2ccc(Nc3ncc(F)c(-c4cc(F)c5nc(C)n(C(C)C)c5c4)n3)nc2)CC1 ; yields the recorded call
Result :: inactive

Query :: Which result was noted for this molecule in the test: CC(C)(C)c1cnc(CSc2cnc(NC(=O)C3CCNCC3)s2)o1 + CC(C)NCC(C(=O)N1CCN(c2ncnc3c2C(C)CC3O)CC1)c1ccc(Cl)cc1
Result :: active

Query :: Per the records of this test, what outcome belongs to CC(C)(C)c1cnc(CSc2cnc(NC(=O)C3CCNCC3)s2)o1 + CCN1CCN(Cc2ccc(Nc3ncc(F)c(-c4cc(F)c5nc(C)n(C(C)C)c5c4)n3)nc2)CC1 ?
Result :: active
